test system: T1, CCX CKR (Homo sapiens, UniProt Q9NPB9)
T1 construct: Full length CCX CKR expression constructs were made in pIRESpuro expression vector; expressed in transfected cells
T1 sequence (Q9NPB9 1-350): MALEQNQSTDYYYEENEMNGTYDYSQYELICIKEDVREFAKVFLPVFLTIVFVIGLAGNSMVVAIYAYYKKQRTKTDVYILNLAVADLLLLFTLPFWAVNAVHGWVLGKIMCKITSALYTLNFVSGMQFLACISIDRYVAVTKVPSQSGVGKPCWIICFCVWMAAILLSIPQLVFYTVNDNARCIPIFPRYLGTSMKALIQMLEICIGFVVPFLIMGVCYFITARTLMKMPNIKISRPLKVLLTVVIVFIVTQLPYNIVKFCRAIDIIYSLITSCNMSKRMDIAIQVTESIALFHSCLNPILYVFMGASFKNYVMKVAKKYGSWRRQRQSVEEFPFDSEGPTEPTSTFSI
assay name: Ligand binding fingerprint: cold chemokines competing against 125I-ELC on CCX CKR stable transfectants
experimental conditions: cold competitor at 200 nM; human and murine chemokines
recorded metric: competition with 125I-labeled ELC binding to CCX CKR (fingerprint)

[
  {
    "molecule": "TECK: thymus expressed chemokine, recombinant (protein) QGVFEDCCLAYHYPIGWAVLRRAWTYRIQEVSGSCNLPAAIFYLPKRHRKVCGNPKSREVQRAMKLLDARNKVFAKLHHNTQTFQAGPHAVKKLSSGNSKLSSSKFSNPISSSKRNVSLLISANSGL",
    "obs value": "bound well"
  },
  {
    "molecule": "SLC: secondary lymphoid-tissue chemokine, recombinant (protein) SDGGAQDCCLKYSQRKIPAKVVRSYRKQEPSLGCSIPAILFLPRKRSQAELCADPKELWVQQLMQHLDKTPSPQKPAQGCRKDRGASKTGKKGKGSKGCKRTERSQTPKGP",
    "obs value": "bound well"
  }
]
